Assign MIC to each entry below.
Test system: E. faecalis ATCC 29212
Assay: MIC (broth microdilution or agar dilution, CLSI)
Type: cell-based
Conditions: Enterococcus faecalis, ATCC29212, E. faecalis ATCC 29212; read-out: MIC
Reply with a number, then the unit it belongs to.

In the examples that follow, each entry is paired with its recorded MIC.
CSC1O[C@H]([C@H](NC(=O)[C@H]2NC[C@@H]3C[C@H](CCF)CCO[C@H]32)[C@H](C)Cl)C(O)[C@@H](O)[C@H]1O (some centres unmarked)
0.5 µg/mL
CS[C@H]1O[C@H]([C@H](NC(=O)[C@H]2NC[C@@H]3C[C@H](CC(C)C)CCO[C@H]32)[C@H](C)Sc2ccc(CN3CCCCC3)cc2)[C@H](O)[C@H](O)[C@H]1O
1 µg/mL
CCC[C@@H]1C[C@@H](C(=O)N[C@@H]([C@H]2O[C@H](SC)[C@H](O)[C@@H](O)[C@H]2O)[C@H](C)Cl)N(C)C1 [Clindamycin, clindamycin, reference compound]
16 µg/mL

Would you mind listing MIC for each of the following molecules?
1. CNCc1ccc(S[C@@H](C)[C@@H](NC(=O)[C@H]2NC[C@@H]3C[C@H](CC(C)C)CCO[C@H]32)[C@H]2O[C@H](SC)[C@H](O)[C@@H](O)[C@H]2O)cc1
2. CS[C@H]1O[C@H]([C@H](NC(=O)[C@H]2NC[C@@H]3C[C@H](CC(C)C)CCO[C@H]32)[C@H](C)Sc2nnc(N3CCNCC3)s2)[C@H](O)[C@H](O)[C@H]1O

Solution:
["0.5 µg/mL", "2 µg/mL"]
